The reported measurements were obtained from the supplement of paper PMC3334620.

Target: Yer184c (UniProt P39961)
Sequence: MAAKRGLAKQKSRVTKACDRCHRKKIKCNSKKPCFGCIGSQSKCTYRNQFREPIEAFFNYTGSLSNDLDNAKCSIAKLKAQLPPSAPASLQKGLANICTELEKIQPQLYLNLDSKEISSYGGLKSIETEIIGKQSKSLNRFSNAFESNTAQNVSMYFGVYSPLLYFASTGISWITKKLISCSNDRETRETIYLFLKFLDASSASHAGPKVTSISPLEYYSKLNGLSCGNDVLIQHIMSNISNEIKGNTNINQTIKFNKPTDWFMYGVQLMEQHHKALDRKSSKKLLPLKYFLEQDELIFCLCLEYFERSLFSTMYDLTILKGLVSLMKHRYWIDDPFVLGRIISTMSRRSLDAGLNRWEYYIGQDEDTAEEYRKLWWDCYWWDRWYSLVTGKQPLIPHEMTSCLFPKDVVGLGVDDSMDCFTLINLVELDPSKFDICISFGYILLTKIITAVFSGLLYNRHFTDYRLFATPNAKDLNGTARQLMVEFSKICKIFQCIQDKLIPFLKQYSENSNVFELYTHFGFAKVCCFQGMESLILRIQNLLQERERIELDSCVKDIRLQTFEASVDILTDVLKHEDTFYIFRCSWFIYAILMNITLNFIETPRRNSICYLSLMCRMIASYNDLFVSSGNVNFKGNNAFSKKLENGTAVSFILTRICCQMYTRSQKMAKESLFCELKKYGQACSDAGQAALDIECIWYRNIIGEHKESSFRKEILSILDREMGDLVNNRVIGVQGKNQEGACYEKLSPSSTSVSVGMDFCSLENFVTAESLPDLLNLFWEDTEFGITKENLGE
Assay: PBM E-score (8-mer binding enrichment) (E-score (-0.5 to 0.5)); higher = stronger / more preferred TF binding
Conditions: protein concentration: 100 nM; construct: GST-full length
Over roughly 33,000 sequences, “E-score (-0.5 to 0.5)” has its median near -0.016; the highest 2% begin near 0.3. For the sample, the highest values were picked, then their nearest neighbours and some sequences at random.
Property: PBM E-score; scope: individual sequences

CACCGAAG : 0.192
ATCACAAT : 0.0634
AGTTCACG : -0.0529
AATATGCA : -0.0575
CCCCGAAC : -0.00623
CTCCGAAG : 0.303
ATTTCTCA : 0.099
CTCCGAAC : 0.323
CGCCGAAG : 0.328
CGCCGATC : 0.129

Task: Give PBM E-score (Yer184c (UniProt P39961)) of the following sequence: ATCCGTTA
Output: 0.367

Task: Next sequence: AGCAGTGC
Output: -0.185

---

Target: Yer184c (UniProt P39961)
Sequence: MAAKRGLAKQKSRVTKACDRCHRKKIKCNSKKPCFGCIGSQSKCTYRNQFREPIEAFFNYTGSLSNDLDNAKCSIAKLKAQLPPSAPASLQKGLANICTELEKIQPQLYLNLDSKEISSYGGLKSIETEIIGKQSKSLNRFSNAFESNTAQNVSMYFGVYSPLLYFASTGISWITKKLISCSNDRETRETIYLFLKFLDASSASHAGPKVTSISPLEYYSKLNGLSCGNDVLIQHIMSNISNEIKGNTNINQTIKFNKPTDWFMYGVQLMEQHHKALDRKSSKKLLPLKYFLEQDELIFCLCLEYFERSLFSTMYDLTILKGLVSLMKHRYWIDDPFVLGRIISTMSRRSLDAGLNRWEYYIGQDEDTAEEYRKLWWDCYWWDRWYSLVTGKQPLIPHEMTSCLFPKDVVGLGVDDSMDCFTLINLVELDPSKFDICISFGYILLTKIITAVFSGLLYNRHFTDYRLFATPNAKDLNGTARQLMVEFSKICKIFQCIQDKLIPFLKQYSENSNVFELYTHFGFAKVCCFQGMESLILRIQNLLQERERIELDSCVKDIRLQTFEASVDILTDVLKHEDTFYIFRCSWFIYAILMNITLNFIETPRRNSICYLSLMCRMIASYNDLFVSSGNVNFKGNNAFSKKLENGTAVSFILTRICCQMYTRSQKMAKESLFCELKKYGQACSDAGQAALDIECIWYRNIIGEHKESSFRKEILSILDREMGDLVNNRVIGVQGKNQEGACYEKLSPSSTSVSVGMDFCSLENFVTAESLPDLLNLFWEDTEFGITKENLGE
Test: PBM E-score (8-mer binding enrichment) (E-score (-0.5 to 0.5)); higher = stronger / more preferred TF binding
Settings: protein concentration: 100 nM; construct: GST-full length
Whole data set: some 33,000 sequences, median “E-score (-0.5 to 0.5)” near -0.016, cut for the highest 2% near 0.3. Shown is part of a subset that was picked to be rich in the highest values.
Property: PBM E-score; scope: individual sequences

Please review the following examples before continuing.
ATGCCAAT : -0.0596
ACGGATGC : 0.203
TAGCCGGA : 0.401
GCGGATCA : 0.105
ACGGATCG : 0.0937
ATACGGAT : 0.196
ATACGGAA : 0.412
ATACGGAC : 0.117
CAGCCGGC : 0.391
CACCCGTG : -0.169

Task: Returns the measured PBM E-score for the input sequence. Input: CAGGATGC
Output: -0.0823

Task: Next sequence: AAGCCGGC
Output: 0.374

Task: Next sequence: AGGCGATG
Output: -0.0512

Task: Next sequence: CCGGATCA
Output: 0.328

---

Target: Yer184c (UniProt P39961)
Sequence: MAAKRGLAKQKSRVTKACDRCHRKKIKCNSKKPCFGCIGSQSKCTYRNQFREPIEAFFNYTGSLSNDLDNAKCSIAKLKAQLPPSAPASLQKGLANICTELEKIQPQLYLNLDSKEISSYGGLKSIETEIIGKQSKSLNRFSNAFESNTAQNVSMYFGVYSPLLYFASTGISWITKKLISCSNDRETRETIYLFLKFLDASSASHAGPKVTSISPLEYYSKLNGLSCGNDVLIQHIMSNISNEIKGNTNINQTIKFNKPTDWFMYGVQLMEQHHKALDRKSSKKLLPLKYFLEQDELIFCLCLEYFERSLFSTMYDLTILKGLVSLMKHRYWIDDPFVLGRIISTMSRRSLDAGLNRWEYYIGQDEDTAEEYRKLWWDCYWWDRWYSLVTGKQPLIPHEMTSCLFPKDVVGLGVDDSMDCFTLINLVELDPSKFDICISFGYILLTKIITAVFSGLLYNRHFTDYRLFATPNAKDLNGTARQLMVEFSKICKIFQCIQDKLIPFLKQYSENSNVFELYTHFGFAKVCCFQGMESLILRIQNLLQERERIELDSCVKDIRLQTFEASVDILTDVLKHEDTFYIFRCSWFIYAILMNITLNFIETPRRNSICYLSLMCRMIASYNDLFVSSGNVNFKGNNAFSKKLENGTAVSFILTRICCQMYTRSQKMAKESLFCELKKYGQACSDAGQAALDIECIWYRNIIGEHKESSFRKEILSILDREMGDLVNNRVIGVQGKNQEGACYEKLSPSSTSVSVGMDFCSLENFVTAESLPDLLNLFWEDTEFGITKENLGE
Assay: PBM E-score (8-mer binding enrichment) (E-score (-0.5 to 0.5)); higher = stronger / more preferred TF binding
Conditions: protein concentration: 100 nM; construct: GST-full length
The full ranking holds about 33,000 sequences; the median of “E-score (-0.5 to 0.5)” is about -0.016, and the highest 2% start at about 0.3. Many of the other results were omitted from the sample, so the highest values are more common in it than they were.
Recorded endpoint: PBM E-score
Answer with a number only.

Please review the following examples before continuing.
ATACGACC : -0.182
AACCGACG : 0.189
GTCCCACA : 0.00972
TATATAAA : 0.289
TATAAAAA : 0.373

Task: Returns the measured PBM E-score for the input sequence. Input: ATAGAAAG
Output: -0.0692

Task: Next sequence: AAATATAC
Output: 0.0721

---

Target: Yer184c (UniProt P39961)
Sequence: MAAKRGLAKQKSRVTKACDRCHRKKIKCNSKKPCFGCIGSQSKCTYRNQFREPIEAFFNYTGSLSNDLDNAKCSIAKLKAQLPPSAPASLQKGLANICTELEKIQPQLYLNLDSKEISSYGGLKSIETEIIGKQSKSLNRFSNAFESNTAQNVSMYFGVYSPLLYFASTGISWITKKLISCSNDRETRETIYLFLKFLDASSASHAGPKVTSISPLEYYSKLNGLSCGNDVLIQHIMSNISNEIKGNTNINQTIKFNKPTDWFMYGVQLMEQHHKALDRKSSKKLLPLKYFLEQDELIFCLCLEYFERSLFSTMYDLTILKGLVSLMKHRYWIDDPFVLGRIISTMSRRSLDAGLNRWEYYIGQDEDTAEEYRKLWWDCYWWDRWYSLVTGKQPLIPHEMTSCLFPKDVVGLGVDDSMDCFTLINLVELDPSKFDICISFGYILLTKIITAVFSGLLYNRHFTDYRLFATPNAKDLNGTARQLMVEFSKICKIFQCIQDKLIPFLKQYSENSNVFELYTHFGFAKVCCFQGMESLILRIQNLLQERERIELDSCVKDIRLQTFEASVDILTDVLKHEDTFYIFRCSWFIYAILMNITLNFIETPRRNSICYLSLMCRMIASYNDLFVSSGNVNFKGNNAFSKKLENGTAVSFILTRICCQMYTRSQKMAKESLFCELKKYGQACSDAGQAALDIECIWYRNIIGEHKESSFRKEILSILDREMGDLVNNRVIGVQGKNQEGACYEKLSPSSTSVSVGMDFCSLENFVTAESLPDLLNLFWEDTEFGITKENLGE
Assay: PBM E-score (8-mer binding enrichment) (E-score (-0.5 to 0.5)); higher = stronger / more preferred TF binding
Conditions: protein concentration: 100 nM; construct: GST-full length
In all, about 33,000 sequences were measured (“E-score (-0.5 to 0.5)”: median about -0.016, highest 2% from about 0.3 on). Only a selection was taken, and the highest values are over-represented in it overall.
Use PBM E-score to assign classes; range list: band A: < 0.03; band B: ≥ 0.03 and < 0.3; band C: ≥ 0.3

Example cases with answers are listed next.
ACCCGCGG : band C
ATCTCCGA : band C
AGGAATAC : band A
GGGAATAC : band A
ATCTCCAG : band A

Task: Band of GGGAATCA ?
Output: band B

Task: Next sequence: CTTTAATA
Output: band B

Task: Next sequence: GGGAAGCA
Output: band A

Task: Next sequence: ATATATAG
Output: band B

Task: Next sequence: AGGAATTA
Output: band B

Task: Next sequence: ATATATAC
Output: band C

Task: Next sequence: CGGAATTC
Output: band B

Task: Next sequence: GTATATAC
Output: band A
